testProtocol: NCI Yeast Anticancer Drug Screen. Data for the bub3 strain (AID 167)
appliedConditions: S. cerevisiae bub3 mutant strain, at 50.0 µM, active compounds read high
The panel holds about 79,000 compounds, 15% with a hit somewhere; the sample as a whole holds those more often.
quantityKind: growth inhibition (%)
Value expressed in %; do not type the unit.

(Q) Give recorded growth inhibition. CC(C)c1cccc(C(C)C)c1NC(=O)C(=O)C1SC(=S)NC1=O (stereo not drawn)
(A) -11.3

(Q) Give recorded growth inhibition. "O=C(CCc1cccs1)OC1CCCCC1"
(A) 9.35

(Q) Give recorded growth inhibition. Brc1cccc(C2SCc3nc4ccccc4n32)c1 (stereo not drawn)
(A) 19.2

(Q) Give recorded growth inhibition. "Nc1c(Br)c(Cl)c(Br)c2c1-c1ccc(Cl)cc1C2"
(A) 7.15

(Q) Give recorded growth inhibition. "CCCC1=C(OC)C(=O)c2c(C)cc(Cl)nc2C1=O"
(A) 87.5

(Q) Give recorded growth inhibition. CCOC(=O)CC1(O)Oc2cc3c(cc2C(c2cc(OC)c(OC)c(OC)c2)C1C(=O)OCC)OCO3 (stereo not drawn)
(A) -1.45

(Q) Give recorded growth inhibition. "COc1ccccc1NC(=O)N(C)Cc1ccc(Cl)cc1"
(A) 47.1

(Q) Give recorded growth inhibition. CCN(CC)CCCN1CCc2c([nH]c3ccccc23)C1c1cccnc1 (stereo not drawn)
(A) -18.1

(Q) Give recorded growth inhibition. "COP(=O)(OC)/C(=C\c1cn(C(c2ccccc2)(c2ccccc2)c2ccccc2)cn1)NC(C)=O"
(A) -19.1

(Q) Give recorded growth inhibition. CC(=O)OCC1(C)C(O)CCC2(C)C1CCC1CC3CC12CCC3(O)CO (stereo not drawn)
(A) -23.4

(Q) Give recorded growth inhibition. "CC(=O)n1[nH]c(=O)c2ncccc2c1=O"
(A) -8.45

(Q) Give recorded growth inhibition. "C=C1C(=O)O[C@@H]2C(=O)[C@@H](C)[C@@H]3C=CC(=O)[C@@]3(C)[C@@H](OC(=O)/C(C)=C\C)[C@H]12"
(A) 7.4

(Q) Give recorded growth inhibition. "CCc1n[nH]c(=O)n1/N=C/c1ccc(C)cc1"
(A) 3.8

(Q) Give recorded growth inhibition. CCCCNC(=O)NC1CC(OC2CC(O)(C(C)=O)Cc3c(O)c4c(c(O)c32)C(=O)c2c(OC)cccc2C4=O)OC(C)C1O (stereo not drawn)
(A) 1.25

(Q) Give recorded growth inhibition. "Cc1cccc(/C=N\N=C\c2cccc(C)n2)n1"
(A) -1.45

(Q) Give recorded growth inhibition. "CC(=O)OC1(C#N)CCCCC1"
(A) 4.8

(Q) Give recorded growth inhibition. "Cc1cc(N(CCC#N)CCC#N)ccc1N=Nc1cc(Cl)ccc1Cl"
(A) 42

(Q) Give recorded growth inhibition. CCOC(=O)C(NC(=O)OCc1ccccc1)C(=O)O (stereo not drawn)
(A) 5.35

(Q) Give recorded growth inhibition. "O=S(=O)(O)CCCCCO"
(A) -2.85

(Q) Give recorded growth inhibition. "O=C(/C=C\c1cccc2ccccc12)c1cccc2ccccc12"
(A) 23.1

(Q) Give recorded growth inhibition. "N#CCCCCN1CCCC1"
(A) 10.1

(Q) Give recorded growth inhibition. "Cc1cc2nc(-c3cc4cc(Cl)cc(Cl)c4oc3=O)[nH]c2cc1C"
(A) 17.2

(Q) Give recorded growth inhibition. "O=C1CC2(CCN(Cc3ccccc3)CC2)C(=O)N1N1CCCCC1"
(A) 43.8

(Q) Give recorded growth inhibition. "O=C(O)CCCc1ccc(Oc2ccccc2)cc1"
(A) -5

(Q) Give recorded growth inhibition. CCc1ccc(NC(=S)NC(=O)C(C)Oc2ccccc2)cc1 (stereo not drawn)
(A) 78.8

(Q) Give recorded growth inhibition. "c1csc(C2Nc3ccccc3N2)c1"
(A) 0.5

(Q) Give recorded growth inhibition. "O=C1CCCc2cc3c(cc21)CC1(Cc2ccccc2C1)C3"
(A) 36.9

(Q) Give recorded growth inhibition. "Nc1ccc(S(=O)c2ccc(N)cc2)cc1"
(A) 18.6

(Q) Give recorded growth inhibition. CCCCCCCCCCCCC(O)C(=O)O (stereo not drawn)
(A) 35.7

(Q) Give recorded growth inhibition. "COc1cc2nc(C)oc(=O)c2cc1OC"
(A) -12.3

(Q) Give recorded growth inhibition. "COc1ccc(N/N=C(/c2ccccc2)c2noc(-c3ccccc3)n2)cc1"
(A) 94.1

(Q) Give recorded growth inhibition. COC1CC(OC2CCC3(C)C(=CCC4C3C(OC(C)=O)C(OC(=O)CC(C)C)C3(C)C(C(C)=O)CCC43O)C2)OC(C)C1OC1CC(OC)C(OC2CC(OC)C(OC3OC(C)C(O)C(OC)C3O)C(C)O2)C(C)O1 (stereo not drawn)
(A) -1.9

(Q) Give recorded growth inhibition. Oc1ccc([C@H]2Oc3c(c(O)cc4c3C3c5c(O)cc(O)cc5OC(c5ccc(O)cc5)(O4)[C@H]3O)CC2O)cc1 (stereo partly drawn)
(A) -7

(Q) Give recorded growth inhibition. "C/C=C(\Cl)C=O"
(A) 3.5

(Q) Give recorded growth inhibition. O=C(Nc1ccc(F)cc1)C(Br)C(Br)c1ccccc1 (stereo not drawn)
(A) 81.5

(Q) Give recorded growth inhibition. "CCCOC(=O)CC(CC(=O)OCCC)C(=O)OCCC"
(A) 37.2

(Q) Give recorded growth inhibition. "CCOC(CN=Cc1cccc2ccccc12)OCC"
(A) -3.55

(Q) Give recorded growth inhibition. "CCOC(=O)c1ccc(NC(=O)Nc2cc(C(F)(F)F)ccc2Cl)cc1"
(A) 86.7

(Q) Give recorded growth inhibition. "Brc1ccc2c[n+]3ccccc3cc2c1"
(A) 24.2

(Q) Give recorded growth inhibition. CCCCC(C)NC=O (stereo not drawn)
(A) 14.4

(Q) Give recorded growth inhibition. O=C(O)C(CCl)c1ccccc1 (stereo not drawn)
(A) 9.85

(Q) Give recorded growth inhibition. "CCN(CC)c1ncnc2n[nH]nc12"
(A) -28.5

(Q) Give recorded growth inhibition. "Cc1cnc2[nH]c(-c3ccccc3)cc(=O)c2c1"
(A) -8.25

(Q) Give recorded growth inhibition. CC1CCCC(C)N1 (stereo not drawn)
(A) 1.5

(Q) Give recorded growth inhibition. CCCCCN(CCCCC)CC(O)c1cccc2c1cc(Br)c1ccccc12 (stereo not drawn)
(A) 0.85

(Q) Give recorded growth inhibition. "Cc1c(Cl)cccc1NC(=O)Nc1ccccc1"
(A) 4.1

(Q) Give recorded growth inhibition. "O=C(/C(=C(/[O-])C(F)(F)F)[n+]1ccc2ccccc2c1)C(F)(F)F"
(A) -28.6

(Q) Give recorded growth inhibition. "CN(C)CCSC(=Nc1ccccc1)N1CCCCC1"
(A) 8.15
